# Assay notes: LAP4-GFP expression modulators in yeast, confirmation, cell-based, cherry picks, flow cytometry, mother/daughter gates (AID 2271);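 note: ratio of sample to DMSO plate mean so 100% equals DMSO level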
# Setup conditions: S. cerevisiae LAP4-GFP strain, 3 h, at 10 µM, active compounds read high, 100 means same as DMSO control
Quantity measured: GFP response relative to DMSO (%)
Give the number; % is assumed, so skip it.

Prompt: Given `CC1CCN(S(=O)(=O)c2cccc(C(=O)Nc3nccs3)c2)CC1` , state its recorded GFP response relative to DMSO.
Response: 92.6

Prompt: State the recorded GFP response relative to DMSO for this entry: `Cc1ccc(NN2C(=O)C=C(c3ccc(Cl)cc3)C2=O)cc1`
Response: 289

Prompt: What value of measured GFP response relative to DMSO is listed for `CCOC(=O)c1ccc(NC(=O)CCc2nc(-c3ccccc3Cl)no2)cc1` ?
Response: 103

Prompt: If you can, please state the reported GFP response relative to DMSO value of `O=C(N/N=C/c1c(Cl)cccc1Cl)c1ccc(F)cc1` .
Response: 105

Prompt: What does the record list as GFP response relative to DMSO for `COc1ccc(OC(=O)c2cccc(S(=O)(=O)N3CCCC3)c2)cc1` ?
Response: 90.2

Prompt: // lookup GFP response relative to DMSO for `O=C(NNC(=O)C1CCCCC1)C(=O)NC1CCCCC1`
Response: 98.8

Prompt: Could you share which GFP response relative to DMSO value was measured for `N#C/C(=C\c1cccc(Oc2ccccc2)c1)C(=O)N1CCOCC1` ?
Response: 137

Prompt: Look at this compound and give its reported GFP response relative to DMSO. `O=C(Nc1ccc(NC(=O)c2cc3ccccc3o2)cc1)c1ccc2c(c1)OCCO2`
Response: 97

Prompt: // lookup GFP response relative to DMSO for `O=C1c2cccc3c([N+](=O)[O-])ccc(c23)C(=O)N1CCc1ccccn1`
Response: 164

Prompt: Which GFP response relative to DMSO value belongs to `Cc1cc(N2CCC(C)CC2)n2ncc(-c3ccccc3)c2n1` ?
Response: 96.2

Prompt: Which GFP response relative to DMSO value belongs to `COc1ccc(/C=C/C(=O)c2c(O)cc(C)oc2=O)c(OC)c1` ?
Response: 102

Prompt: Value lookup for GFP response relative to DMSO; key = COc1ccc(/C=N/NC(=O)C2(C)NC(C)(C)Cc3ccccc32)cc1 (stereo unspecified)
Response: 96.7

Prompt: Return reported GFP response relative to DMSO; argument: CCOC(=O)C(N)CSC1CC(=O)N(c2ccc(C(=O)OC)cc2)C1=O (stereo unspecified)
Response: 102

Prompt: Bench note: what GFP response relative to DMSO did CCOC(=O)C(C(=O)OCC)C(C(=O)OCC)N1CCOCC1 (stereo unspecified) show?
Response: 182

Prompt: Which GFP response relative to DMSO is listed for `c1ccc(CSc2ccc(-c3ccccn3)nn2)cc1` ?
Response: 108

Prompt: Give the measured GFP response relative to DMSO of `NNC(=O)c1ccc(COc2ccc3ccccc3c2)cc1` .
Response: 101

Prompt: Fill in the blank: the reported GFP response relative to DMSO of `CCN1/C(=C/C(C)=C/c2sc3ccccc3[n+]2CC)Sc2ccccc21` is ____.
Response: 243

Prompt: GET /values?readout=GFP response relative to DMSO&item= Cc1cc(NC(c2ccc(Cl)cc2)c2ccc3cccnc3c2O)no1 (stereo unspecified)
Response: 108

Prompt: Can you share its GFP response relative to DMSO? I mean this compound: Cc1ccc(C(c2cc(Cl)c3cccnc3c2O)N2CCN(C)CC2)cc1 (stereo unspecified)
Response: 184

Prompt: Look up GFP response relative to DMSO for this compound: `COc1ccc(CNC(=O)c2c(O)c3ccccc3n(C)c2=O)cc1OC`
Response: 90.6

Prompt: # query: GFP response relative to DMSO of entry `Cc1nn(C(=O)c2ccco2)c(C)c1Sc1ccccc1`
Response: 97.7

Prompt: Return reported GFP response relative to DMSO; argument: CC(NC(=O)C1CCC(CNS(=O)(=O)c2ccccc2)CC1)c1ccccc1 (stereo unspecified)
Response: 100

Prompt: Would you kindly share the measured GFP response relative to DMSO for `CCOC(=O)c1c(C)[nH]c(C)c1C(=O)COC(=O)c1cc2ccccc2cc1O` ?
Response: 106

Prompt: Endpoint output: GFP response relative to DMSO of `O=C(O)Cc1ccc2ccc3ccccc3c2c1` . Value?
Response: 106

Prompt: I have this compound here, `Cc1[nH][nH]c(=O)c1C(c1ccc(N(C)C)c(Br)c1)c1c(C)[nH][nH]c1=O` , and I need its recorded GFP response relative to DMSO.
Response: 116

Prompt: Consider the compound `Cc1ccccc1C(=O)Nc1ccccc1` and give its measured GFP response relative to DMSO.
Response: 96.7

Prompt: Given the entry Cc1ccc(C2CCN(C(=S)Nc3cccc(Cl)c3)C2)cc1 (stereo unspecified) , report its measured GFP response relative to DMSO.
Response: 119

Prompt: Request the reported GFP response relative to DMSO associated with `Cc1ccc(C(=O)c2c3ccccc3[n+]([O-])n2CCC(=O)O)cc1`
Response: 102

Prompt: Requested field: GFP response relative to DMSO. Item: `Oc1c(CN2CCN(c3ccc(F)cc3)CC2)cc(Cl)c2cccnc12`
Response: 264

Prompt: What GFP response relative to DMSO value was documented for this compound, `CN(c1ccccc1)S(=O)(=O)c1ccc(C(=O)Nc2nnc(-c3ccc(F)cc3)o2)cc1` ?
Response: 122

Prompt: Given the entry `Cc1cccc(NC(=O)CCCN2C(=O)c3cccc4cccc(c34)C2=O)c1` , report its measured GFP response relative to DMSO.
Response: 94.4

Prompt: Using the record for `COC(=O)c1ccc(/C=N/NC(=O)c2cccc(F)c2)cc1` , report its GFP response relative to DMSO.
Response: 103

Prompt: Data request, read-out GFP response relative to DMSO, for `O=C1c2cccc3cccc(c23)C(=O)N1c1ccncc1`
Response: 84.9

Prompt: I have this compound here, `C/C(=N\NC(=O)c1cc2ccccc2cc1O)c1ccccn1` , and I need its recorded GFP response relative to DMSO.
Response: 234

Prompt: Which GFP response relative to DMSO value is on record for `CN(C)S(=O)(=O)c1cc(NC(=O)CN2CCOCC2)ccc1Cl` ?
Response: 95.3

Prompt: Any idea what its GFP response relative to DMSO is? The compound is `CCc1c2ccccc2nn1-c1ccccc1C(=O)C(C)=O`
Response: 102
